Biological target: E. coli SPase (Escherichia coli, UniProt P00803)
Sequence (P00803 whole entry): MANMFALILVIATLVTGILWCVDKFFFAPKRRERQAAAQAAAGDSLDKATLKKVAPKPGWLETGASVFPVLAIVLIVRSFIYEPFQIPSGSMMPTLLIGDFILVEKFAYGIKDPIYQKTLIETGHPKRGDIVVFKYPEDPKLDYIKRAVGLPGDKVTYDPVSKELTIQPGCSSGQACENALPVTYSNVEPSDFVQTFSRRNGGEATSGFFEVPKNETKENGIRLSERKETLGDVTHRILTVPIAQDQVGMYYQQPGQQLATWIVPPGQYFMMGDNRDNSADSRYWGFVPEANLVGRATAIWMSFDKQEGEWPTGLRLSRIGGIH
Test: Biochemical SPase activity assay (fluorogenic peptide substrate), E. coli enzyme
Peptide text beside a SMILES is read from it. * marks the point of attachment. Biphenylcarbonyl(4'-Bu) = CCCCc1ccc(-c2ccc(C(=O)*)cc2)cc1; X1 = C[C@H](N*)B1OC2C[C@@H]3C[C@@H](C3(C)C)[C@]2(C)O1; Benzoyl(4-(4-Cl-Ph)) = O=C(c1ccc(-c2ccc(Cl)cc2)cc1)*; boroAla = C[C@H](N*)B(O)O; βAla = NCCC(=O)O
# reported IC50; entries follow
# output: bare number, implied unit nM

INSERT INTO measurements (compound, number) VALUES
  ('CCCCc1ccc(-c2ccc(C(=O)NCCC(=O)N[C@@H](CCCCN)C(=O)N[C@@H](CCC(N)=O)C(=O)N[C@@H](C)C(=O)N[C@@H](CCCCN)C(=O)N[C@@H](C)B3OC4C[C@@H]5C[C@@H](C5(C)C)[C@]4(C)O3)cc2)cc1 (some centres unmarked) [Compound 216] ({Biphenylcarbonyl(4''-Bu)-βAla}-KQAK-X1)', 29);

Continue with the compound presented below.
// IC50 value for C[C@H](NC(=O)[C@H](CC(N)=O)NC(=O)[C@H](C)NC(=O)[C@@H](NC(=O)[C@H](CCCCN)NC(=O)CCNC(=O)c1ccc(-c2ccc(Cl)cc2)cc1)[C@@H](C)O)B(O)O [Compound 154] ({Benzoyl(4-(4-Cl-Ph))-βAla}-KTAN-boroAla) : 14

---

Molecular target: E. coli SPase (Escherichia coli, UniProt P00803)
Test: Biochemical SPase activity assay (fluorogenic peptide substrate), E. coli enzyme
Square brackets hold non-standard residues; d marks the D form. Peptide text beside a SMILES is read from it. * marks the point of attachment. boroAla((+)-pinanediol) = C[C@H](N*)B1O[C@@H]2C[C@@H]3C[C@@H](C3(C)C)[C@]2(C)O1; Biphenylcarbonyl(4'-Bu) = CCCCc1ccc(-c2ccc(C(=O)*)cc2)cc1; Dap = NC[C@H](N)C(=O)O
Quantity: IC50
Number first, unit second: that is the form wanted.

INSERT INTO measurements (molecule, subject_of_test, quantity, result) VALUES
  ('CCCCc1ccc(-c2ccc(CNCC[C@H](N)C(=O)N[C@H](C(=O)N[C@@H](C)C(=O)N[C@@H](CCCCN)C(=O)N[C@@H](C)B3OC4C[C@@H]5C[C@@H](C5(C)C)[C@]4(C)O3)[C@@H](C)O)cc2)cc1 (some centres unmarked) [Compound 276]', 'E. coli SPase (Escherichia coli, UniProt P00803)', 'IC50', '2000 nM');

So, CCCCc1ccc(-c2ccc(C(=O)N[C@@H](CN)C(=O)N[C@@H](CCC(=O)N[C@H](C)C(=O)O)C(=O)N[C@@H](C)C(=O)N[C@@H](CCCCN)C(=O)N[C@@H](C)B3O[C@@H]4C[C@@H]5C[C@@H](C5(C)C)[C@]4(C)O3)cc2)cc1 [Compound 260] ({Biphenylcarbonyl(4'-Bu)}-[Dap]E(dA)AK-{boroAla((+)-pinanediol)}) ? Its IC50 was 5.6 nM

---

// pIC50 lookup, one value per entry
Biological target: S. aureus SPase (Staphylococcus aureus, UniProt P0A070)
Sequence (P0A070 whole entry): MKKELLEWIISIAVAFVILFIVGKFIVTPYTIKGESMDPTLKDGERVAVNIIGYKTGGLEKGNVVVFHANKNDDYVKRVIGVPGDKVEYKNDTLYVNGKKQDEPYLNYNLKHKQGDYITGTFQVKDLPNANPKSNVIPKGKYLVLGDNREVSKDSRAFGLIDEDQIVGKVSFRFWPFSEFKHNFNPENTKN
Test: biochemical
Square brackets hold non-standard residues; d marks the D form. Peptide text beside a SMILES is read from it. * marks the point of attachment. ξ: configuration not given here. boroAla((+)-pinanediol) = C[C@H](N*)B1O[C@@H]2C[C@@H]3C[C@@H](C3(C)C)[C@]2(C)O1; Biphenylcarbonyl(4'-Bu) = CCCCc1ccc(-c2ccc(C(=O)*)cc2)cc1; X1 = C[C@H](N*)B1OC2C[C@@H]3C[C@@H](C3(C)C)[C@]2(C)O1; Dopa = N[C@@H](Cc1ccc(O)c(O)c1)C(=O)O; Dab = NCC[C@H](N)C(=O)O; ξOrn = NCCCC(N)C(=O)O; βAla = NCCC(=O)O
Reminder that pIC50 is minus the log10 of a molar concentration.

INSERT INTO assay_data (compound, number) VALUES
  ('CCCCc1ccc(-c2ccc(C(=O)NCCC(=O)N[C@@H](CCCCN)C(=O)NC(CCCN)C(=O)N[C@@H](C)C(=O)N[C@@H](CC(C)C)C(=O)N[C@@H](C)B3OC4C[C@@H]5C[C@@H](C5(C)C)[C@]4(C)O3)cc2)cc1 (some centres unmarked) [Compound 217] ({Biphenylcarbonyl(4''-Bu)-βAla}-K[ξOrn]AL-X1)', 7.85);

// switching to the query compound
So for CCCCc1ccc(-c2ccc(C(=O)N[C@@H](CCN)C(=O)N[C@@H](Cc3ccc(O)c(O)c3)C(=O)N[C@@H](C)C(=O)N[C@@H](CCCCN)C(=O)N[C@@H](C)B3O[C@@H]4C[C@@H]5C[C@@H](C5(C)C)[C@]4(C)O3)cc2)cc1 [Compound 188] ({Biphenylcarbonyl(4'-Bu)}-[Dab][Dopa]AK-{boroAla((+)-pinanediol)}) , the logged pIC50 turned out to be 5.54

---

Reported pIC50 is given for each of the following molecules.
Target: E. coli SPase (Escherichia coli)
Assay: Biochemical SPase activity assay (fluorogenic peptide substrate), E. coli enzyme
Square brackets hold non-standard residues; d marks the D form. Peptide text beside a SMILES is read from it. * marks the point of attachment. boroAla((+)-pinanediol) = C[C@H](N*)B1O[C@@H]2C[C@@H]3C[C@@H](C3(C)C)[C@]2(C)O1; Biphenylcarbonyl(4'-Bu) = CCCCc1ccc(-c2ccc(C(=O)*)cc2)cc1; X1 = C[C@H](N*)B1OC2C[C@@H]3C[C@@H](C3(C)C)[C@]2(C)O1; Lys(Me3) = C[N+](C)(C)CCCC[C@H](N)C(=O)O; X13 = CCCCN1CCC(c2ccc(C(=O)*)cc2)CC1; boroAla = C[C@H](N*)B(O)O; Dab = NCC[C@H](N)C(=O)O; βAla = NCCC(=O)O
# pIC50 is unitless: minus log10 of the molar concentration; print number only

Would you please look over these solved cases?
INSERT INTO measurements (molecule, subject_of_test, number) VALUES
  ('CCCCc1ccc(-c2ccc(C(=O)NCCCC[C@H](NC(=O)[C@@H](N)CCN)C(=O)N[C@@H](C)C(=O)N[C@@H](CCCCN)C(=O)N[C@@H](C)B3OC4C[C@@H]5C[C@@H](C5(C)C)[C@]4(C)O3)cc2)cc1 (stereo partly shown) [Compound 278] (H-[Dab]K(Biphenylcarbonyl(4''-Bu))AK-X1)', 'E. coli SPase (Escherichia coli)', 6.10),
  ('CCCCc1ccc(-c2ccc(C(=O)N[C@@H](CCCC[N+](C)(C)C)C(=O)N[C@H](C(=O)N[C@@H](C)C(=O)N[C@@H](CCCCN)C(=O)N[C@@H](C)B(O)O)[C@@H](C)O)cc2)cc1 [Compound 159] ({Biphenylcarbonyl(4''-Bu)}-[Lys(Me3)]TAK-boroAla)', 'E. coli SPase (Escherichia coli)', 6.62),
  ('CCCCc1ccc(-c2ccc(C(=O)NCCC(=O)N[C@@H](CCCCN)C(=O)N3CCC[C@H]3C(=O)N[C@@H](C)C(=O)N[C@@H](CC(N)=O)C(=O)N[C@@H](C)B3OC4C[C@@H]5C[C@@H](C5(C)C)[C@]4(C)O3)cc2)cc1 (stereo partly shown) [Compound 208] ({Biphenylcarbonyl(4''-Bu)-βAla}-KPAN-X1)', 'E. coli SPase (Escherichia coli)', 7.70);

Turning now to a further record.
The measured pIC50 that CCCCN1CCC(c2ccc(C(=O)N[C@@H](CCN)C(=O)N[C@H](C(=O)N[C@@H](C)C(=O)N[C@@H](CCCCN)C(=O)N[C@@H](C)B3O[C@@H]4C[C@@H]5C[C@@H](C5(C)C)[C@]4(C)O3)[C@@H](C)O)cc2)CC1 [Compound 244] (X13-[Dab]TAK-{boroAla((+)-pinanediol)}) showed for E. coli SPase (Escherichia coli) is 6.46

---

Target: E. coli SPase (Escherichia coli, UniProt P00803)
Assay: Biochemical SPase activity assay (fluorogenic peptide substrate), E. coli enzyme
Peptide text beside a SMILES is read from it. * marks the point of attachment. X1 = C[C@H](N*)B1OC2C[C@@H]3C[C@@H](C3(C)C)[C@]2(C)O1; Lauroyl = CCCCCCCCCCCC(=O)*; βAla = NCCC(=O)O
Quantity: IC50 (nM)
Reply with just the number (in nM).

The reported IC50 value, E. coli SPase (Escherichia coli, UniProt P00803), for CCCCCCCCCCCC(=O)NCCC(=O)N[C@@H](CCCCN)C(=O)N[C@H](C(=O)N[C@@H](C)C(=O)N[C@@H](CC(N)=O)C(=O)N[C@@H](C)B1OC2C[C@@H]3C[C@@H](C3(C)C)[C@]2(C)O1)[C@@H](C)O (stereo partly shown) [Compound 202] ({Lauroyl-βAla}-KTAN-X1) reads 7.1

These entries and their values trace back to patent US9708368B2.
